tested on: acute liver injury induced by carbon tetrachloride; experiment: Protective effect on acute liver injury induced by carbon tetrachloride (mice, oral): plasma GPT activity and BSP retention; type: in vivo, mice (ddY, male); conditions: 1 mg/kg, 6 h before CCl4 (0.05 ml/kg p.o.), plasma 30 min after BSP 75 mg/kg i.v.
Consider the following compounds and their measured Retained BSP readings.
TEST READOUT: Retained BSP (µg/mL)

[
  {
    "COMPOUND": "CCCCCCC1CCC[N+]1=c1sccs1.[O-][Cl+3]([O-])([O-])[O-] (stereo not drawn) [Compound No. 45]",
    "MEASUREMENT": 110
  },
  {
    "COMPOUND": "CN1CC[N+](=c2sccs2)CC1.[O-][Cl+3]([O-])([O-])[O-] [Compound No. 31]",
    "MEASUREMENT": 20.3
  },
  {
    "COMPOUND": "CC1CCC[N+](=c2sccs2)C1.[O-][Cl+3]([O-])([O-])[O-] (stereo not drawn) [Compound No. 52]",
    "MEASUREMENT": 87.1
  },
  {
    "COMPOUND": "NC(=O)C1CCC[N+]1=c1sccs1.[I-] (stereo not drawn) [Compound No. 44]",
    "MEASUREMENT": 134.7
  },
  {
    "COMPOUND": "CCOC(=O)C1CC[N+](=c2sccs2)CC1.[O-][Cl+3]([O-])([O-])[O-] (stereo not drawn) [Compound No. 56]",
    "MEASUREMENT": 76.6
  },
  {
    "COMPOUND": "CCOC(=O)C[N+](C)=c1sccs1.[O-][Cl+3]([O-])([O-])[O-] [Compound No. 1]",
    "MEASUREMENT": 53.2
  },
  {
    "COMPOUND": "C[N+](=c1sccs1)C1CCCCC1.[O-][Cl+3]([O-])([O-])[O-] [Compound No. 7]",
    "MEASUREMENT": 120.1
  },
  {
    "COMPOUND": "CCOC(=O)C1CCC[N+](=c2sccs2)C1.[I-] (stereo not drawn) [Compound No. 55]",
    "MEASUREMENT": 83.9
  },
  {
    "COMPOUND": "[O-][Cl+3]([O-])([O-])[O-].c1csc(=[N+]2CCCC2)s1 [Compound No. 35]",
    "MEASUREMENT": 101.2
  },
  {
    "COMPOUND": "CCOC(=O)C1CCC[N+]1=c1sccs1.[Cl-] (stereo not drawn) [Compound No. 42]",
    "MEASUREMENT": 53.1
  },
  {
    "COMPOUND": "C[N+](CCC#N)=c1sccs1.[I-] [Compound No. 4]",
    "MEASUREMENT": 42.6
  },
  {
    "COMPOUND": "COC(=O)CC(C(=O)OC)[N+](C)=c1sccs1.[O-][Cl+3]([O-])([O-])[O-] (stereo not drawn) [Compound No. 17]",
    "MEASUREMENT": 135
  },
  {
    "COMPOUND": "N#CC1CC[N+](=c2sccs2)CC1.[O-][Cl+3]([O-])([O-])[O-] (stereo not drawn) [Compound No. 59]",
    "MEASUREMENT": 110.1
  },
  {
    "COMPOUND": "CNC(=O)C[N+](C)=c1sccs1 [Compound No. 3]",
    "MEASUREMENT": 67.1
  },
  {
    "COMPOUND": "C=CC[N+](CC=C)=c1sccs1.[O-][Cl+3]([O-])([O-])[O-] [Compound No. 12]",
    "MEASUREMENT": 109.3
  },
  {
    "COMPOUND": "[O-][Cl+3]([O-])([O-])[O-].c1ccc(C2CCC[N+]2=c2sccs2)cc1 (stereo not drawn) [Compound No. 46]",
    "MEASUREMENT": 101
  },
  {
    "COMPOUND": "[O-][Cl+3]([O-])([O-])[O-].c1csc(=[N+]2CCOCC2)s1 [Compound No. 26]",
    "MEASUREMENT": 21.6
  },
  {
    "COMPOUND": "Cc1cccc([N+](C)=c2sccs2)c1.[O-][Cl+3]([O-])([O-])[O-] [Compound No. 9]",
    "MEASUREMENT": 73.1
  }
]

====

test system: acute liver injury induced by carbon tetrachloride; assay: Protective effect on acute liver injury induced by carbon tetrachloride (mice, oral): plasma GPT activity and BSP retention; assay type: in vivo, mice (ddY, male); settings: 1 mg/kg, 6 h before CCl4 (0.05 ml/kg p.o.), plasma 30 min after BSP 75 mg/kg i.v.
Consider the following molecules and their measured Retained BSP readings.
TEST READOUT: Retained BSP (µg/mL)

[
  {
    "MOLECULE": "CCOC(=O)C1CCC[N+]1=c1sccs1.[O-][Cl+3]([O-])([O-])[O-] (stereo not shown)",
    "TEST READOUT": "Retained BSP",
    "UNITS LABEL": "µg/mL",
    "MEASUREMENT": 26.5
  },
  {
    "MOLECULE": "CC1CC(C)C[N+](=c2sccs2)C1.[I-] (stereo not shown)",
    "TEST READOUT": "Retained BSP",
    "UNITS LABEL": "µg/mL",
    "MEASUREMENT": 111.4
  },
  {
    "MOLECULE": "[O-][Cl+3]([O-])([O-])[O-].c1csc(=[N+]2CCCCC2)s1",
    "TEST READOUT": "Retained BSP",
    "UNITS LABEL": "µg/mL",
    "MEASUREMENT": 26.5
  },
  {
    "MOLECULE": "CCOC(=O)C[N+](C)=c1sccs1.[Cl-]",
    "TEST READOUT": "Retained BSP",
    "UNITS LABEL": "µg/mL",
    "MEASUREMENT": 57.4
  }
]

====

Consider the following compounds and their measured GPT activity readings.
tested on: acute liver injury induced by carbon tetrachloride; assay: Protective effect on acute liver injury induced by carbon tetrachloride (mice, oral): plasma GPT activity and BSP retention; format: in vivo, mice (ddY, male); conditions: 5 mg/kg, 6 h before CCl4 (0.05 ml/kg p.o.), plasma

[
  {
    "COMPOUND": "[O-][Cl+3]([O-])([O-])[O-].c1csc(=[N+]2CCCCC2)s1 [Compound No. 34]",
    "UNITS LABEL": "Karmen units",
    "GPT activity": 116
  },
  {
    "COMPOUND": "N#CC1CC[N+](=c2sccs2)CC1.[O-][Cl+3]([O-])([O-])[O-] (centres unmarked) [Compound No. 59]",
    "UNITS LABEL": "Karmen units",
    "GPT activity": 763
  },
  {
    "COMPOUND": "CC(C)CC(C(=O)OC(C)C)[N+](C)=c1sccs1.[O-][Cl+3]([O-])([O-])[O-] (centres unmarked) [Compound No. 18]",
    "UNITS LABEL": "Karmen units",
    "GPT activity": 3250
  },
  {
    "COMPOUND": "CCOC(=O)C[N+](C)=c1sccs1.[Cl-] [Compound No. 2]",
    "UNITS LABEL": "Karmen units",
    "GPT activity": 192
  },
  {
    "COMPOUND": "[O-][Cl+3]([O-])([O-])[O-].c1ccc(C[N+](Cc2ccccc2)=c2sccs2)cc1 [Compound No. 16]",
    "UNITS LABEL": "Karmen units",
    "GPT activity": 1017
  },
  {
    "COMPOUND": "[O-][Cl+3]([O-])([O-])[O-].c1csc(=[N+]2CCOCC2)s1 [Compound No. 26]",
    "UNITS LABEL": "Karmen units",
    "GPT activity": 113
  },
  {
    "COMPOUND": "[O-][Cl+3]([O-])([O-])[O-].c1csc(=[N+]2CCCC2)s1 [Compound No. 35]",
    "UNITS LABEL": "Karmen units",
    "GPT activity": 2472
  },
  {
    "COMPOUND": "OC1CC[N+](=c2sccs2)CC1.[O-][Cl+3]([O-])([O-])[O-] (centres unmarked) [Compound No. 60]",
    "UNITS LABEL": "Karmen units",
    "GPT activity": 131
  },
  {
    "COMPOUND": "CC1CC(C)C[N+](=c2sccs2)C1.[I-] (centres unmarked) [Compound No. 67]",
    "UNITS LABEL": "Karmen units",
    "GPT activity": 372
  },
  {
    "COMPOUND": "NC(=O)C1CC[N+](=c2sccs2)CC1.[I-] (centres unmarked) [Compound No. 58]",
    "UNITS LABEL": "Karmen units",
    "GPT activity": 1151
  },
  {
    "COMPOUND": "CCOC(=O)C[N+](C)=c1sccs1.[O-][Cl+3]([O-])([O-])[O-] [Compound No. 1]",
    "UNITS LABEL": "Karmen units",
    "GPT activity": 183
  },
  {
    "COMPOUND": "O=C(O)C1CC[N+](=c2sccs2)CC1.[O-][Cl+3]([O-])([O-])[O-] (centres unmarked) [Compound No. 57]",
    "UNITS LABEL": "Karmen units",
    "GPT activity": 2922
  },
  {
    "COMPOUND": "C[N+](Cc1ccccc1)=c1sccs1.[O-][Cl+3]([O-])([O-])[O-] [Compound No. 10]",
    "UNITS LABEL": "Karmen units",
    "GPT activity": 108
  },
  {
    "COMPOUND": "CN1CC[N+](=c2sccs2)CC1.[O-][Cl+3]([O-])([O-])[O-] [Compound No. 31]",
    "UNITS LABEL": "Karmen units",
    "GPT activity": 148
  },
  {
    "COMPOUND": "Cc1cccc([N+](C)=c2sccs2)c1.[O-][Cl+3]([O-])([O-])[O-] [Compound No. 9]",
    "UNITS LABEL": "Karmen units",
    "GPT activity": 191
  },
  {
    "COMPOUND": "[O-][Cl+3]([O-])([O-])[O-].c1ccc(C2CCC[N+]2=c2sccs2)cc1 (centres unmarked) [Compound No. 46]",
    "UNITS LABEL": "Karmen units",
    "GPT activity": 1040
  },
  {
    "COMPOUND": "CC1CCC[N+](=c2sccs2)C1.[O-][Cl+3]([O-])([O-])[O-] (centres unmarked) [Compound No. 52]",
    "UNITS LABEL": "Karmen units",
    "GPT activity": 138
  }
]
